Listed compounds paired with reported IC50
# System Tested: G-protein coupled receptor 55 (Homo sapiens, UniProt Q9Y2T6)
# Sequence (Q9Y2T6 whole entry): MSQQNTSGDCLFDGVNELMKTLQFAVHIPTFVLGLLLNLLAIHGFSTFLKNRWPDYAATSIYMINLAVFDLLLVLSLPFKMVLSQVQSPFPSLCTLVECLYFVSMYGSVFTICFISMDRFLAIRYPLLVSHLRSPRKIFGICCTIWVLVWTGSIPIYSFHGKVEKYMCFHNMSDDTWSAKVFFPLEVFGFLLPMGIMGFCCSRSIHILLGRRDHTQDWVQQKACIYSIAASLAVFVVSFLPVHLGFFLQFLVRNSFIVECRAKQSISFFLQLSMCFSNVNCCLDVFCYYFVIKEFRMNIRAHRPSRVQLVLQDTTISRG
# Test Description: GPR55 antagonists blocking LPI-driven arrestin recruitment, primary screen, imaging, U2OS, beta-arrestin-GFP, LPI agonist (AID 2013);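 note: antagonist potency measured as reduced agonist-driven arrestin aggregation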
# Format: functional
Activity calls are given as the source filed them.

Answered examples (4):
>  <Compound Structure String>
Cc1ccc(/C=C2\C(=O)NC(=O)N(CCc3ccc(F)cc3)C2=O)o1

>  <System Tested>
G-protein coupled receptor 55 (Homo sapiens, UniProt Q9Y2T6)

>  <Observed Measurement>
3.55 µM (active)

$$$$
>  <Compound Structure String>
Clc1ccc2oc3c(Cl)ncnc3c2c1

>  <System Tested>
G-protein coupled receptor 55 (Homo sapiens, UniProt Q9Y2T6)

>  <Observed Measurement>
6.41 µM (active)

$$$$
>  <Compound Structure String>
CC1=NN(c2cccc(C(=O)O)c2)C(=O)/C1=C\C=C/c1ccccc1

>  <System Tested>
G-protein coupled receptor 55 (Homo sapiens, UniProt Q9Y2T6)

>  <Observed Measurement>
3.3 µM (active)

$$$$
>  <Compound Structure String>
COc1ccc(-c2c(-c3ccc(O)cc3O)n[nH]c2C(F)(F)F)cc1

>  <System Tested>
G-protein coupled receptor 55 (Homo sapiens, UniProt Q9Y2T6)

>  <Observed Measurement>
1.8 µM (active)

$$$$

[ask] May I ask what IC50 has been recorded for "COc1cc(/C=N/NC(=O)c2cc(C34CC5CC(CC(C5)C3)C4)[nH]n2)ccc1O" ?
[reply] 2.69 µM (active)

----------
# Test Description: Luminescence Cell-Based Dose Confirmation HTS to Identify Inhibitors of Platelet Dense Granule Release. [Related pubchem assays: 1663 (Primary HTS), 1678 (Summary of Project)]
# Format: functional
The source made the active and inactive calls.
Assay Metric: EC50

Examples with their reported EC50 follow.
>  <Compound>
Cc1ccc(N=Nc2cc(C)ccc2N)cc1

>  <Observed Measurement>
3.15 µM (active)

$$$$
>  <Compound>
CSc1ccc(/C=C2\C(=N)N3N=C(CC(=O)N4CCOCC4)SC3=NC2=O)cc1

>  <Observed Measurement>
> 112 µM (not active)

$$$$
>  <Compound>
COc1ccc(C(=O)N2CCCc3ccccc32)cc1

>  <Observed Measurement>
> 112 µM (not active)

$$$$

[ask] # query: EC50 of entry COc1cc(/C=N/NC(N)=O)ccc1OCC(=O)N1C(C)CCCC1C (centres undefined)
[reply] 5.74 µM (active)

----------
Here the recorded IC50 is given for each entry.
# System Tested: Carboxy-terminal domain RNA polymerase II polypeptide A small phosphatase 1 (Homo sapiens)
# Sequence (Q9GZU7 whole entry, the tested form may be a part): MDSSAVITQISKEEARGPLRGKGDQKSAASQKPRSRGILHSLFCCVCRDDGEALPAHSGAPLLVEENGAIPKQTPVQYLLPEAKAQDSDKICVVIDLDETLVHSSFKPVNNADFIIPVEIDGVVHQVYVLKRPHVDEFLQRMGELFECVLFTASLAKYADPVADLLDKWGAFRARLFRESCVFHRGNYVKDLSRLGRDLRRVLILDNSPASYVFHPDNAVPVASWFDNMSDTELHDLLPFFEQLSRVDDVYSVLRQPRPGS
# Test Description: inhibitors of CTDSP1, concentration-response testing, biochemical assay, absorbance-based, actives from ultra-high-throughput screening (AID 540297)
# Assay type: functional
Calls of active or inactive are those of the source.

[ask] Name the reported IC50 value associated with the molecule "O=C(O)c1cccc2c1/C(=N/Nc1ccc([N+](=O)[O-])cc1[N+](=O)[O-])c1ccccc1-2"
[reply] 30.7 µM (active)

----------
# System Tested: Corticotropin-releasing factor receptor 2/Corticotropin-releasing factor-binding protein (Homo sapiens, UniProt P24387+Q13324)
# Sequence (Q13324 whole entry): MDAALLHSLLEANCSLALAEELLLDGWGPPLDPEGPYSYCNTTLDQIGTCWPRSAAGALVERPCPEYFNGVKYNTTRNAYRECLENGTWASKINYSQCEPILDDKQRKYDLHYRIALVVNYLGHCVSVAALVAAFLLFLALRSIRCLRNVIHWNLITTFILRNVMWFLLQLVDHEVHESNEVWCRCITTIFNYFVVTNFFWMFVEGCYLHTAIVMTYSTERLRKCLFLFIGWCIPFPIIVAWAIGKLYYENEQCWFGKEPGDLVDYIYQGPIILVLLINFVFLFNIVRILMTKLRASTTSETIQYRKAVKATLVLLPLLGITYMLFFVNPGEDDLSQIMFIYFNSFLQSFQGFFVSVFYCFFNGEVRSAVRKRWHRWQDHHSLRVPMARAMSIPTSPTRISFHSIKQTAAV
# Sequence (P24387 whole entry): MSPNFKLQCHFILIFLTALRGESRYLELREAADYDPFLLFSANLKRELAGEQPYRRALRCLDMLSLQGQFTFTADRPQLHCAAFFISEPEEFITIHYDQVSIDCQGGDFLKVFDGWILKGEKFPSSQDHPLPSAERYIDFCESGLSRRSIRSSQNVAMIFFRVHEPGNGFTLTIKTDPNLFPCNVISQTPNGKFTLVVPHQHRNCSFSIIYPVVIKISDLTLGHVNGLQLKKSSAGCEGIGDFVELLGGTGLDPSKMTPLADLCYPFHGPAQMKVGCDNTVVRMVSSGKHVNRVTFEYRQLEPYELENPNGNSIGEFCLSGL
# Test Description: Dose Response confirmation of uHTS hits for small molecule antagonists of the CRF-binding protein and CRF-R2 receptor complex.
# Assay type: functional
# Experimental Conditions: read-out: IC50_Mean
The source made the active and inactive calls.
Please state which outcome applies, choosing from 1 (active), 0 (inactive)

[ask] For this compound, state the assay outcome: "CC1(C)Cc2ccccc2C(c2cc3ccccc3oc2=O)=N1"
[reply] 0

[ask] Assay result, entry "CCOc1cc(/C=N/NC(=O)c2ccccc2OCc2ccc(F)cc2)ccc1O" — outcome?
[reply] 1

[ask] How did this test come out for "Cc1c(C(=O)Nc2c(F)cccc2F)sc2ncn(CC(=O)N3CCCCC3)c(=O)c12" ?
[reply] 0
